# Tested on: DRAK1
# Construct: gene STK17A
# condition.set: concentration: 1 μM, replicates: in singlicate; n = 1;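 further: KINOMEscan kinase panel screen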
endpoint.label: %Inh
Kindly write the number and append the unit.

The cases that follow already have their %Inh on record.
O=c1cc(N2CCOCC2)nc2n(Cc3cccc(Cl)c3Cl)ccn12 = 0%
CC(C)(C)c1ccc(C(=O)Nc2cn3cc(Cl)ccc3n2)cc1 = 5%
C[C@@H]1CCCCN1c1cc(-c2ccc3c(N)n[nH]c3c2)nc(N)n1 = 96%

Task item: Look up and report measured %Inh for this entry: Cn1ccc2ncnc(Oc3ccc(NC(=O)Nc4ccccc4)cc3)c21
Reply: 0%

Task item: Look up and report measured %Inh for this entry: Cc1cccc(-c2nc(Nc3cccc(C(N)=O)c3)c3ccccc3n2)n1
Reply: 8%

Task item: Look up and report measured %Inh for this entry: O=C(Nc1n[nH]c2cc(-c3cccc(F)c3F)ccc12)C1CC1
Reply: 0%

Task item: Look up and report measured %Inh for this entry: Cc1ccccc1-n1cnc2c(N)ncnc21
Reply: 0%

Task item: Look up and report measured %Inh for this entry: CC(=O)Nc1nc2cnc(Nc3cc(NC(=O)c4cccc(CCC#N)c4)ccc3C)nc2s1
Reply: 0%

Task item: Look up and report measured %Inh for this entry: Cc1nnc(-c2ccc3occ(-c4ccc(S(C)=O)cc4)c3c2)[nH]1 (stereo not drawn)
Reply: 26%

----------
# Tested on: LATS1
# condition.set: concentration: 1 μM, replicates: in singlicate; n = 1
Readings of %Inh for the listed molecules
Numbers only here, please. The scale is %.

The cases that follow already have their %Inh on record.
CS(=O)(=O)c1ccc(-c2c(-c3ncn[nH]3)sc(N3CCOCC3)c2C#N)cc1 = 24
Cn1ccc2ncnc(Oc3ccc(Nc4nc5ccccc5[nH]4)cc3)c21 = 0
Cn1cncc1-c1ccc2ncnc(Nc3ccc(OCc4ccccc4)cc3)c2c1 = 0
COc1cc(Nc2nccc(N3CCC(NC(=O)Nc4cc(C)ccc4C)C3)n2)cc(OC)c1OC (centres unmarked) = 0
Cc1ccccc1-n1cnc2c(N)ncnc21 = 0
CCn1c(-c2cccnc2O)nc2cnccc21 = 0

Task item: Look up and report measured %Inh for this entry: COc1ccc2nc(-c3cccc(C)n3)nc(Nc3ccncc3)c2c1
Reply: 0

Task item: Look up and report measured %Inh for this entry: CC(=O)Nc1nc2cnc(Nc3cc(NC(=O)c4cccc(CCC#N)c4)ccc3C)nc2s1
Reply: 21

----------
# Tested on: YSK4
# Construct: gene MAP3K19
# condition.set: concentration: 1 μM, replicates: in singlicate; n = 1
endpoint.label: %Inh (%)
Numbers only here, please. The scale is %.

The cases that follow already have their %Inh on record.
Clc1cc(Cl)cc(Nc2ccnc(Nc3cc(Cl)cc(Cl)c3)n2)c1 [GSK175726] = 0
COc1cc2ncn(-c3cc(OCC4CCCO4)c(C(N)=O)s3)c2cc1OC (stereo not drawn) [GSK204607] = 53
CCCc1ccc(S(=O)(=O)NC2CCN(c3ccnc(Nc4ccc(F)cc4)n3)C2)cc1 (stereo not drawn) [GSK1379715] = 31
O=C(Nc1n[nH]c2cc(-c3cccc(F)c3F)ccc12)C1CC1 [SB-733894] = 74
O=C(O)COc1ncnc2cc(-c3ccc4[nH]ncc4c3)sc12 = 83

Task item: Look up and report measured %Inh for this entry: Cc1c(Cn2ccn3c(=O)cc(N4CCOCC4)nc23)cccc1C(F)(F)F [GSK2289044]
Reply: 43

Task item: Look up and report measured %Inh for this entry: Cc1cccc(-c2cc(Nc3ccncc3)c3ccccc3n2)n1 [GSK223675]
Reply: 13

Task item: Look up and report measured %Inh for this entry: Fc1cccc(COc2nnc(-c3ccc4c(c3)CCO4)o2)c1
Reply: 31

Task item: Look up and report measured %Inh for this entry: O=C(Nc1n[nH]c2nc(-c3nccs3)c(Br)cc12)C1CCCC1 [SB-742609]
Reply: 62

----------
# System: KIT-autoinhibited
# condition.set: concentration: 1 μM, replicates: in singlicate; n = 1
endpoint.label: %Inh
Kindly write the number and append the unit.

The cases that follow already have their %Inh on record.
NC(=O)c1nnc2ccccc2c1N = 19%
COc1ccccc1CNC(=O)c1cc(C(=O)c2ccccc2C)c[nH]1 = 0%
COc1ccc(C2=C(Nc3cccc(C(=O)O)c3)C(=O)NC2=O)cc1 = 14%
CC(=O)Nc1nc2cnc(Nc3cc(NC(=O)c4cccc(CCC#N)c4)ccc3C)nc2s1 = 11%
COc1cc2ncn(-c3cc(OCC4CCCO4)c(C(N)=O)s3)c2cc1OC (stereo not drawn) = 0%
Cc1cccc(-c2nc(Nc3ccncc3)c3ccccc3n2)n1 = 0%

Task item: Look up and report measured %Inh for this entry: Cc1cc(N2Cc3ccccc3C2)nc(Nc2ccc(S(=O)(=O)N3CCOCC3)cc2)n1.Cl
Reply: 3%

Task item: Look up and report measured %Inh for this entry: COc1cc2nccc(Nc3ccc(NC(=O)c4ccc(C)cc4)c(O)c3)c2cc1OC.Cl
Reply: 0%

Task item: Look up and report measured %Inh for this entry: Cc1ccc(-c2cc(-c3c[nH]nc3-c3ccccn3)ccn2)cc1
Reply: 2%

Task item: Look up and report measured %Inh for this entry: Cn1cncc1-c1ccc2ncnc(Nc3ccc(OCc4ccccc4)cc3)c2c1
Reply: 0%

Task item: Look up and report measured %Inh for this entry: Cc1ccccc1-n1cnc2c(N)ncnc21
Reply: 0%

Task item: Look up and report measured %Inh for this entry: O=S(=O)(c1ccc(-c2ccnc3[nH]ccc23)cc1)N1CCCC1
Reply: 0%

Task item: Look up and report measured %Inh for this entry: COC(=O)c1c(-c2ccccc2)c2cc(C(=O)O)ccc2c(=O)n1Cc1ccccc1
Reply: 0%

Task item: Look up and report measured %Inh for this entry: COc1cc(Nc2nccc(N3CCC(NC(=O)Nc4cc(C)ccc4C)C3)n2)cc(OC)c1OC (stereo not drawn)
Reply: 0%

Task item: Look up and report measured %Inh for this entry: CC(C)(C)c1ccc(C(=O)Nc2cn3cc(-c4cccnc4)ccc3n2)cc1
Reply: 0%

Task item: Look up and report measured %Inh for this entry: COc1cc2ncnc(Nc3ccc4nc(-c5ccccc5)[nH]c4c3)c2cc1OC.Cl
Reply: 0%

Task item: Look up and report measured %Inh for this entry: COc1ccc(Nc2nccc(NCCNC(=O)Nc3ccccc3F)n2)cc1
Reply: 0%

Task item: Look up and report measured %Inh for this entry: Cn1ccc2ncnc(Oc3ccc(NC(=O)Nc4ccccc4)cc3)c21
Reply: 57%

Task item: Look up and report measured %Inh for this entry: Cl.Oc1ccc(-c2nc(-c3ccccc3)[nH]c2-c2ccncc2)cc1
Reply: 18%

Task item: Look up and report measured %Inh for this entry: Fc1cccc(COc2nnc(-c3ccc4c(c3)CCO4)o2)c1
Reply: 0%

Task item: Look up and report measured %Inh for this entry: CS(=O)(=O)c1ccc(-c2c(-c3ncn[nH]3)sc(N3CCOCC3)c2C#N)cc1
Reply: 49%

----------
# Tested on: DCAMKL3
# Construct: gene DCLK3
# condition.set: concentration: 1 μM, replicates: in singlicate; n = 1
Readings of %Inh for the listed compounds
Numbers only here, please. The scale is %.

The cases that follow already have their %Inh on record.
CCCc1ccc(S(=O)(=O)NC2CCN(c3ccnc(Nc4ccc(F)cc4)n3)C2)cc1 (stereo not drawn) = 0
COc1ccc(Nc2nccc(NCCNC(=O)Nc3ccccc3F)n2)cc1 = 8
Cl.O=C(Nc1cccc(-c2nn3ncccc3c2-c2ccnc(Nc3cccnc3)n2)c1)c1c(F)cccc1F = 0
COc1cc(Nc2nccc(N3CCC(NC(=O)Nc4cc(C)ccc4C)C3)n2)cc(OC)c1OC (stereo not drawn) = 0
Fc1cc(Cl)ccc1Nc1ccnc2cc(I)ccc12 = 0

Consider now this further compound.
Task item: Look up and report measured %Inh for this entry: O=c1cc(N2CCOCC2)nc2n(Cc3cccc(Cl)c3Cl)ccn12
Reply: 20

----------
# Test system: MYLK
# condition.set: concentration: 1 μM, replicates: in singlicate; n = 1
The class of a record is decided solely by its measured %Inh; consult LOW = under 5%, MID = from 5% up to 10%, HIGH = 10% and over

Some entries whose results are on file:
CC(=O)Nc1nc2cnc(Nc3cc(NC(=O)c4cccc(CCC#N)c4)ccc3C)nc2s1 = HIGH
Cn1ccc2ncnc(Oc3ccc(NC(=O)Nc4ccccc4)cc3)c21 = LOW
Fc1cc(Cl)ccc1Nc1ccnc2cc(I)ccc12 = HIGH
Nc1ncnc2[nH]c(-c3ccccc3)nc12 = MID
Cc1cccc(-c2nc(-c3ccc(S(C)(=O)=O)cc3)sc2-c2ccnc(NCCc3ccccc3)c2)c1 = LOW

Task item: Lab note: which band did Cc1cccc(-c2nc(Nc3ccncc3)c3ccccc3n2)n1 land in?
Reply: HIGH

Task item: Lab note: which band did O=C(Nc1n[nH]c2cc(-c3cccc(F)c3F)ccc12)C1CC1 land in?
Reply: MID

Task item: Lab note: which band did O=S(=O)(c1ccc(-c2ccnc3[nH]ccc23)cc1)N1CCCC1 land in?
Reply: HIGH
